# Subject Of Test: D(3) dopamine receptor (Homo sapiens, UniProt P35462)
# Sequence (P35462 whole entry): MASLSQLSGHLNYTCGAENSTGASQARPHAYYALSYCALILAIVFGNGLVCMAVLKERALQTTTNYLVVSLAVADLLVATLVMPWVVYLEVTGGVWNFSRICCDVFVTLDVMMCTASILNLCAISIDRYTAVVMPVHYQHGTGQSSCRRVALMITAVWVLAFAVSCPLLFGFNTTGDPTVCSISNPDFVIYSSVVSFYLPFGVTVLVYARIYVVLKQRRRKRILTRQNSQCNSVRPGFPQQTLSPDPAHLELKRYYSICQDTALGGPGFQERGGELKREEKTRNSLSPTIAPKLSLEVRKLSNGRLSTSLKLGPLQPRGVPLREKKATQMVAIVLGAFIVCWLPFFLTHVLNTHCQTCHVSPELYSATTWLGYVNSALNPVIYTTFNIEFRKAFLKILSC
# Experimental Protocol: Binding affinity to dopamine D3 receptor (unknown origin) by radioligand binding assay
# Assay Conditions: read-out: Ki
Measured Quantity: Ki

[[record]]
compound = "C=CCOc1cc(F)c(F)cc1C1CC1CN.Cl (single isomer, unassigned; (+))"
experimental_value = "201 nM"


###

Assay read-out EC50; system under study: 5-hydroxytryptamine receptor 2A (Homo sapiens).
Measured Quantity: EC50 (µM)

[[record]]
compound = "COc1ccc(Cl)c(F)c1C1CC1CN (single isomer, unassigned; (+))"
unit_symbol = "µM"
experimental_value = 0.212

[[record]]
compound = "COc1ccc(F)c(F)c1C1CC1CN (single isomer, unassigned; (+))"
unit_symbol = "µM"
experimental_value = 0.437

[[record]]
compound = "COc1cc(F)c(Cl)cc1C1CC1CN (single isomer, unassigned; (+))"
unit_symbol = "µM"
experimental_value = 0.081

[[record]]
compound = "COc1cc(F)c(F)cc1C1CC1CN (single isomer, unassigned; (-))"
unit_symbol = "µM"
experimental_value = 0.511

[[record]]
compound = "COc1cc(F)c(Cl)cc1C1CC1CN (stereo in doubt; (-)-20c)"
unit_symbol = "µM"
experimental_value = 0.235


###

Entries and their measured Emax follow.
# Subject Of Test: 5-hydroxytryptamine receptor 2A (Homo sapiens, UniProt P28223)
# Sequence (P28223 whole entry): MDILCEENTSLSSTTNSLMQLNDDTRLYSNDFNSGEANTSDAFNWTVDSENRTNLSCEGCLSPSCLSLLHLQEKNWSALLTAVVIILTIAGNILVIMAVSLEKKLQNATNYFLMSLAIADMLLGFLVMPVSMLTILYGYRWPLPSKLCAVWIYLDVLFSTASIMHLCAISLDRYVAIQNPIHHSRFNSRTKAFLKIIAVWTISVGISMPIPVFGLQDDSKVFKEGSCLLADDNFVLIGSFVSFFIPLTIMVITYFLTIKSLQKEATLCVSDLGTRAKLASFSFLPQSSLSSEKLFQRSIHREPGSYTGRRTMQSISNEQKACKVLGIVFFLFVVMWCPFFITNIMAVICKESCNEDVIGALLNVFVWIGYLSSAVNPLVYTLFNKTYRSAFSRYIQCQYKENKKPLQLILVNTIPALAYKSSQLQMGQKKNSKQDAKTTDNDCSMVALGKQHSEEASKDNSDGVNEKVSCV
# Experimental Protocol: Agonist activity at human 5HT2A receptor expressed in Flp-In-293 cells assessed as calcium flux by FLIPR assay relative to 5-HT
# Type: functional, cell-based
Measured Quantity: Emax (%)

[[record]]
compound = "COc1ccc(Cl)c(Cl)c1C1CC1CN (single isomer, unassigned; (-))"
experimental_value = 88

[[record]]
compound = "COc1cc(F)c(Cl)cc1C1CC1CN (stereo in doubt; (-)-20c)"
experimental_value = 88

[[record]]
compound = "COc1cc(Cl)c(Cl)cc1C1CC1CN (single isomer, unassigned; (+))"
experimental_value = 85

[[record]]
compound = "COc1ccc(Cl)c(F)c1C1CC1CN (single isomer, unassigned; (-))"
experimental_value = 86

[[record]]
compound = "COc1ccc(F)c(F)c1C1CC1CN (stereo in doubt; (-)-20b)"
experimental_value = 72


###

# Subject Of Test: D(2) dopamine receptor (Homo sapiens, UniProt P14416)
# Sequence (P14416 whole entry): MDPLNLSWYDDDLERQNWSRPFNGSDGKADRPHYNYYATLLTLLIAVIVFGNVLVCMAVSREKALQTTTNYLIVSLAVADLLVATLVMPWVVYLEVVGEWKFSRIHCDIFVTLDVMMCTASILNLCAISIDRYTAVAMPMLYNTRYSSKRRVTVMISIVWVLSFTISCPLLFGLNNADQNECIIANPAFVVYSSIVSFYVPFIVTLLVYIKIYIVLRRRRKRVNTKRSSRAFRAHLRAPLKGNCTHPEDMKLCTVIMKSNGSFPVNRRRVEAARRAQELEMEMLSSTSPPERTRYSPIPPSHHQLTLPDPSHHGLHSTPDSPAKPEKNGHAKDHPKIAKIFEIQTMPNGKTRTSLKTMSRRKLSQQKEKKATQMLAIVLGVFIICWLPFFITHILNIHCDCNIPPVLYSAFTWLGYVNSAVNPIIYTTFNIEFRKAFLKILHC
# Experimental Protocol: Binding affinity to human dopamine D2 receptor by radioligand binding assay
pKi: −log10 of the molar value.
Measured Quantity: pKi

[[record]]
compound = "C=CCOc1cc(F)c(F)cc1C1CC1CN.Cl (single isomer, unassigned; (+))"
experimental_value = 5.31


###

# Subject Of Test: Beta-2 adrenergic receptor (Homo sapiens, UniProt P07550)
# Sequence (P07550 whole entry): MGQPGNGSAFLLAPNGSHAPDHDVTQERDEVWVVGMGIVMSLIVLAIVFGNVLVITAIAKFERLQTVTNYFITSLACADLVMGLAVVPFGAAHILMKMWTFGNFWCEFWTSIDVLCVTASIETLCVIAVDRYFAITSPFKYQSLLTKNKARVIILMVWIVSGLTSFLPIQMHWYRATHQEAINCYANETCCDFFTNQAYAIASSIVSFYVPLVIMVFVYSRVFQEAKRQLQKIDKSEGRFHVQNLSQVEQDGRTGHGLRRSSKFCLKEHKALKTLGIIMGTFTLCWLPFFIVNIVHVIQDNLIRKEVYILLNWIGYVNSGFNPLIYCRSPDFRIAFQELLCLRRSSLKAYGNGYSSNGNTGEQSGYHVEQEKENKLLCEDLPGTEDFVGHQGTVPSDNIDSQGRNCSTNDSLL
Measured Quantity: Ki (nM)

[[record]]
compound = "C=CCOc1cc(F)c(F)cc1C1CC1CN.Cl (single isomer, unassigned; (+))"
measured_quantity = "Ki"
experimental_value = 807


###

# Subject Of Test: UniProt:P28335
# Sequence (P28335 whole entry): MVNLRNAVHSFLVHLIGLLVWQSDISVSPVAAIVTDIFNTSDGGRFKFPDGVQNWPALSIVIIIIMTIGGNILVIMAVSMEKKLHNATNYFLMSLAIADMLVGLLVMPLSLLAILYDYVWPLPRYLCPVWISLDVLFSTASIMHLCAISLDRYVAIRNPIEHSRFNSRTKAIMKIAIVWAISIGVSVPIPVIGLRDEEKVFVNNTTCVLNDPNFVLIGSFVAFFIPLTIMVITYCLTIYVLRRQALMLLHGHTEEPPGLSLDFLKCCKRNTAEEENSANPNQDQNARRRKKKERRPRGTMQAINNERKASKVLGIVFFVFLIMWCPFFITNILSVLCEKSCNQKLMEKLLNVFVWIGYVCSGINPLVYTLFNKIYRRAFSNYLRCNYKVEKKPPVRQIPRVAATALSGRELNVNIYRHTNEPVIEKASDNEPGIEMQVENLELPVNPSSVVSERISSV
# Experimental Protocol: Agonist activity at recombinant human 5HT2C-INI receptor expressed in Flp-In-293 cells assessed as calcium flux by FLIPR assay relative to 5-HT
# Type: functional, cell-based
Entries and their measured Emax follow.
Measured Quantity: Emax (%)

[[record]]
molecule = "C=CCOc1cc(F)c(Cl)cc1C1CC1CN (single isomer, unassigned; (+))"
subject_of_test = "UniProt:P28335"
experimental_value = 87

[[record]]
molecule = "NCC1CC1c1c(OCCF)ccc(F)c1F (single isomer, unassigned; (+))"
subject_of_test = "UniProt:P28335"
experimental_value = 96

[[record]]
molecule = "NCC1CC1c1cc(Cl)c(F)cc1OCCF (stereo in doubt; (-)-21c)"
subject_of_test = "UniProt:P28335"
experimental_value = 70

[[record]]
molecule = "COc1ccc(F)c(Cl)c1C1CC1CN (stereo in doubt; (+)-20g)"
subject_of_test = "UniProt:P28335"
experimental_value = 89

[[record]]
molecule = "COc1cc(F)c(Cl)cc1C1CC1CN (stereo in doubt; (-)-20c)"
subject_of_test = "UniProt:P28335"
experimental_value = 98


###

Sequence of the target: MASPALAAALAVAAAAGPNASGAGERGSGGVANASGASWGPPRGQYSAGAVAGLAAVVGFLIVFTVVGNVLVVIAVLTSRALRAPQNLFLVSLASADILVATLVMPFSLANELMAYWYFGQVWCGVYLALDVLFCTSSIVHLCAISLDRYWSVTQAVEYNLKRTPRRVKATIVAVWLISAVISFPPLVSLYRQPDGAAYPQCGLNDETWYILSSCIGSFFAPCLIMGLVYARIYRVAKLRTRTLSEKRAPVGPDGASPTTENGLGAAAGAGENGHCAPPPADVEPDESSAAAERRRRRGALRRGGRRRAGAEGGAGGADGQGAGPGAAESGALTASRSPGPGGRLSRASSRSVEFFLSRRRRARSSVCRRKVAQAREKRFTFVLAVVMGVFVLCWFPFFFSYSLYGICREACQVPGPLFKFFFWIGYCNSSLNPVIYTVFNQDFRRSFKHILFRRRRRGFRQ
Measured Quantity: Ki

[[record]]
compound = "C=CCOc1cc(F)c(F)cc1C1CC1CN.Cl (single isomer, unassigned; (+))"
experimental_value = "278 nM"


###

# Subject Of Test: 5-hydroxytryptamine receptor 7 (Homo sapiens, UniProt P34969)
# Sequence (P34969 whole entry): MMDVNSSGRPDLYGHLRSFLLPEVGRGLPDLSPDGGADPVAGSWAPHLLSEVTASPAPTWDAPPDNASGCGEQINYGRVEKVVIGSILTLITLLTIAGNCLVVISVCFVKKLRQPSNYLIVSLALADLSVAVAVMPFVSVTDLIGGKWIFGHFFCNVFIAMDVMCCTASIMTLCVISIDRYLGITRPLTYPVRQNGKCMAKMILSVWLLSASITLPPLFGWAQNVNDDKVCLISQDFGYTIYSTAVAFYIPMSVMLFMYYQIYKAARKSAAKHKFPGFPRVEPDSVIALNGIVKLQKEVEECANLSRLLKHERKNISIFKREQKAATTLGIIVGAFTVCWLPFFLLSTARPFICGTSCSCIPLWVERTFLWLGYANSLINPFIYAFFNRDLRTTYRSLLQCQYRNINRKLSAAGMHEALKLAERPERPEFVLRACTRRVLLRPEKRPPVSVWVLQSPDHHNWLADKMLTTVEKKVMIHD
# Experimental Protocol: Binding affinity to human 5HT7 receptor by radioligand binding assay
# Assay Conditions: read-out: Ki
pKi: −log10 of the molar value.
Measured Quantity: pKi

[[record]]
molecule = "C=CCOc1cc(F)c(F)cc1C1CC1CN.Cl (single isomer, unassigned; (+))"
subject_of_test = "5-hydroxytryptamine receptor 7 (Homo sapiens, UniProt P34969)"
measured_quantity = "pKi"
experimental_value = 5.89

